format: in vivo, healthy subjects; conditions: human, plasma, oral, AUCtau, plasma, steady state; sacubitril/valsartan 200 mg twice daily + furosemide 40 mg single dose; mean (SD)
observed_property: AUC (ng·h/mL)

a. CCOC(=O)[C@H](C)C[C@@H](Cc1ccc(-c2ccccc2)cc1)NC(=O)CCC(=O)O [Sacubitril, sacubitril]
b. C[C@H](C[C@@H](Cc1ccc(-c2ccccc2)cc1)NC(=O)CCC(=O)O)C(=O)O [Sacubitrilat, sacubitrilat]
c. CCCCC(=O)N(Cc1ccc(-c2ccccc2-c2nnn[nH]2)cc1)[C@H](C(=O)O)C(C)C [Valsartan, valsartan]
QUERY: Reorder: AUC, max to min. Record the ranking as a list of labels in the requested order.
RESULT: b, c, a
(b: 86100 ng·h/mL, c: 21000 ng·h/mL, a: 2330 ng·h/mL)

* * *

type: in vivo, healthy subjects; conditions: human, plasma, oral, 200 mg
observed_property: Tmax (h)

[[record]]
structure = "C[C@H](C[C@@H](Cc1ccc(-c2ccccc2)cc1)NC(=O)CCC(=O)O)C(=O)O"
recorded_number = 2


A. CCCCC(=O)N(Cc1ccc(-c2ccccc2-c2nnn[nH]2)cc1)[C@H](C(=O)O)C(C)C
B. CCOC(=O)[C@H](C)C[C@@H](Cc1ccc(-c2ccccc2)cc1)NC(=O)CCC(=O)O
QUERY: Lower Tmax: A or B ? Answer format: the label of the selected item.
RESULT: B

* * *

type: in vivo, healthy subjects; details: human, plasma, oral, 200 mg, Cmax,ss; sacubitril/valsartan 200 mg twice daily alone; mean (SD)
observed_property: Cmax (ng/mL)

[[record]]
molecule = "CCOC(=O)[C@H](C)C[C@@H](Cc1ccc(-c2ccccc2)cc1)NC(=O)CCC(=O)O [Sacubitril, sacubitril]"
observed_property = "Cmax"
unit_string = "ng/mL"
recorded_number = 1740


I. C[C@H](C[C@@H](Cc1ccc(-c2ccccc2)cc1)NC(=O)CCC(=O)O)C(=O)O [Sacubitrilat, sacubitrilat]
II. CCCCC(=O)N(Cc1ccc(-c2ccccc2-c2nnn[nH]2)cc1)[C@H](C(=O)O)C(C)C [Valsartan, valsartan]
QUERY: Between these two entries, I and II , state which has the higher Cmax. Answer format: the label of the selected item.
RESULT: I
